# Measured On: T1, Synthetic peptide HGVTSAPDTRPAPGSTAPP
# T1 construct: Unglycosylated; also called 346; MUC1 repeat
# T1 peptide: HGVTSAPDTRPAPGSTAPP
# Test Summary: ELISA on coated peptide, antibody 0.01 mg/ml, mean of 3
Readout Kind: ELISA absorbance at 450 nm (absorbance)
Answer with a number only, understood to be in absorbance.

Example binders with recorded ELISA absorbance at 450 nm:
binder="M20 (antibody, human IgG1, kappa, V domains shown, Human IgG) VH: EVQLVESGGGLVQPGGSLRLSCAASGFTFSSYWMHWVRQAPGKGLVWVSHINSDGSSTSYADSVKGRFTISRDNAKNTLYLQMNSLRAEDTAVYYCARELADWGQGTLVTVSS VL: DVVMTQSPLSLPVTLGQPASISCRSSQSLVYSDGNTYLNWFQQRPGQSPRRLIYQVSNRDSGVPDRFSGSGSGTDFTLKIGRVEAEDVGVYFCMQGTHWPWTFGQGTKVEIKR" unit_symbol=absorbance reported=1.9
binder="M7 (antibody, human IgG1, kappa, V domains shown, Human IgG) VH: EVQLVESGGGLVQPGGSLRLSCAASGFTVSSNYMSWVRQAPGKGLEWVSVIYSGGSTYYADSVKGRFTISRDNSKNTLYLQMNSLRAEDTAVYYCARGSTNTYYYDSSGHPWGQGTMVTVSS VL: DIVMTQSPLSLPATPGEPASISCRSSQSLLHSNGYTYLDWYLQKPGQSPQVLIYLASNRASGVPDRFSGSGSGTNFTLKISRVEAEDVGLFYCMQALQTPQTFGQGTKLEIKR" unit_symbol=absorbance reported=0.1

Now for another entry.
Query: Any idea what ELISA absorbance at 450 nm was measured for M22 (antibody, human IgG1, kappa, V domains shown, Human IgG) VH: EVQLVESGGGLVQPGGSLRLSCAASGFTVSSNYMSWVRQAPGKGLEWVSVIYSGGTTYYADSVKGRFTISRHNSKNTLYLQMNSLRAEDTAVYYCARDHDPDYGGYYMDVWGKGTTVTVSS VL: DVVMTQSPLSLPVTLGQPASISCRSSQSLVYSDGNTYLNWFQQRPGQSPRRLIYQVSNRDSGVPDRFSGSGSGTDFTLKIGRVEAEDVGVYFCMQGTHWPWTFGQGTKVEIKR ?
Result: 2.1
